Target: Acetylcholinesterase (Electrophorus electricus)
Assay: Inhibition of electric eel AChE at 0.3 uM using acetylthiocholine iodide as substrate measured from 0.5 to 1.5 mins by spectrophotometry-based Ellman's method relative to control
The source made the active and inactive calls. No cut-off for these calls is given here.
recorded endpoint: inhibition

A selection of reference data follows.
> print(dat)
                  compound.structure.string  reported.measurement
1   O=C(Nc1cc(Cl)nc(Cl)c1)OCCCCCCNCc1ccccc1                   72%
2  O=C(Nc1cc(Cl)nc(Cl)c1)OCCCCCNCc1c[nH]c2ccccc12                   76%
3  O=C(NCCCCCCNCc1ccc(Oc2ccccc2)cc1)c1cc(Cl)nc(Cl)c1              inactive
4  O=C(NCCCCCCNCc1ccc2ccccc2c1)c1cc(Cl)nc(Cl)c1              inactive
5  O=C(NCCCCCCNCc1c[nH]c2ccccc12)c1cc(Cl)nc(Cl)c1                   55%

Next item in the queue.
Check the records and state inhibition for `O=C(Nc1cc(Cl)nc(Cl)c1)OCCCCCNCc1ccc(Oc2ccccc2)cc1`
< 5%

----------
This section presents compounds with their documented inhibition values.
Target: Acetylcholinesterase (Electrophorus electricus)
Experiment: Inhibition of electric eel AChE at 0.03 uM using acetylthiocholine iodide as substrate measured from 0.5 to 1.5 mins by spectrophotometry-based Ellman's method relative to control
Just the number please, in %, no unit attached.

Here is how some compounds turned out for inhibition.
> print(dat)
                  compound.structure.string  recorded.endpoint  reported.measurement
1    O=C(NCCCCCCNCc1ccccc1)c1cc(Cl)nc(Cl)c1         inhibition                    18
2  O=C(Nc1cc(Cl)nc(Cl)c1)OCCCCCNCc1c[nH]c2ccccc12         inhibition                    24
3          O=C(Nc1ccncc1Br)OCCCCCNCc1ccccc1         inhibition                    20
4  COc1ccccc1CNCCCCCOC(=O)Nc1cc(Cl)nc(Cl)c1         inhibition                    10
5   O=C(Nc1cc(Cl)nc(Cl)c1)OCCCCCCNCc1ccccc1         inhibition                    33

Give inhibition for this entry on Acetylcholinesterase (Electrophorus electricus): `COc1ccccc1CNCCCCCCNC(=O)c1cc(Cl)nc(Cl)c1`
14

// output inhibition; input `O=C(NCCCCCCNCc1c[nH]c2ccccc12)c1cc(Cl)nc(Cl)c1` ; system Acetylcholinesterase (Electrophorus electricus)
15

Write inhibition of `O=C(Nc1cc(Cl)nc(Cl)c1)OCCCCCNCc1ccccc1` ; system used: Acetylcholinesterase (Electrophorus electricus)
65

----------
The following compounds are shown together with reported inhibition values.
Molecular target: Acetylcholinesterase (Electrophorus electricus)
Test: Inhibition of electric eel AChE at 0.3 uM using acetylthiocholine iodide as substrate measured from 0.5 to 1.5 mins by spectrophotometry-based Ellman's method relative to control
Write the answer as a number in %, unit excluded.

Example cases with answers are listed next.
> print(dat)
                compound.structure.string                             target.system  recorded.endpoint  reported.measurement
1  O=C(Nc1cc(Cl)nc(Cl)c1)OCCCCCNCc1ccccc1  Acetylcholinesterase (Electrophorus electricus)         inhibition                    91
2  O=C(NCCCCCCNCc1ccccc1)c1cc(Cl)nc(Cl)c1  Acetylcholinesterase (Electrophorus electricus)         inhibition                    71
3        O=C(Nc1ccncc1Br)OCCCCCNCc1ccccc1  Acetylcholinesterase (Electrophorus electricus)         inhibition                    55

Retrieve inhibition on Acetylcholinesterase (Electrophorus electricus); query `COc1ccccc1CNCCCCCOC(=O)Nc1cc(Cl)nc(Cl)c1`
50

Give inhibition for `COc1ccccc1CNCCCCCCNC(=O)c1cc(Cl)nc(Cl)c1` tested on Acetylcholinesterase (Electrophorus electricus).
49
